measuredOn: HIV-1 PR (Human immunodeficiency virus type 1 group M subtype B, UniProt P04585)
methodDescription: HIV-protease inhibitory activity assay (FRET peptide substrate)
conditionDescription: Test Example 1
Field: label. Allowed values: true (1) (IC50 < 2 nM) or false (0) (IC50 >= 2 nM).

compound	measuredOn	categoryLabel
COc1ccc(S(=O)(=O)N(CC(C)C)CC(O)C(Cc2ccc(OCc3cnn(-c4ccccc4)c3-c3sc4c(c3C(=O)O)CC(C)(C)CC4)cc2)NC(=O)OC2COC3(C)OCCC23)cc1 (stereo not shown)	HIV-1 PR (Human immunodeficiency virus type 1 group M subtype B, UniProt P04585)	true (1)
COc1ccc(S(=O)(=O)N(CC(C)C)CC(O)C(Cc2ccc(OCc3ccccc3-c3sc4c(c3C(=O)O)CC(F)(F)CC4)cc2)NC(=O)OC2COC3(C)OCCC23)cc1 (stereo not shown)	HIV-1 PR (Human immunodeficiency virus type 1 group M subtype B, UniProt P04585)	true (1)
COc1ccc(S(=O)(=O)N(CC(C)C)CC(O)C(Cc2ccc(N(C)C3CN(c4ccc(-c5sc6c(c5C(=O)O)CC(C)(C)CC6)cc4)C3)cc2)NC(=O)OC2COC3(C)OCCC23)cc1 (stereo not shown)	HIV-1 PR (Human immunodeficiency virus type 1 group M subtype B, UniProt P04585)	false (0)
C=CCNc1ccc(-c2sc3c(c2C(=O)O)CC(C)(C)CC3)c(CNc2ccc(CC(NC(=O)OC3COC4(C)OCCC34)C(O)CN(CC(C)C)S(=O)(=O)c3ccc(OC)cc3)cc2)c1 (stereo not shown)	HIV-1 PR (Human immunodeficiency virus type 1 group M subtype B, UniProt P04585)	false (0)
CC(C)CN(C[C@@H](O)[C@H](Cc1ccc(OCc2ccccc2-c2sc3c(c2C(=O)O)CC(C)(C)CC3)cc1)NC(=O)O[C@H]1CO[C@@]2(C)OCC[C@@H]12)S(=O)(=O)c1ccc(N)c(/C=C/C(N)=O)c1	HIV-1 PR (Human immunodeficiency virus type 1 group M subtype B, UniProt P04585)	false (0)
COc1ccc(S(=O)(=O)N(CC(C)C)CC(O)C(Cc2ccc(N3CCN(c4ccccc4-c4sc5c(c4C(=O)O)CC(C)(C)CC5)C3=O)cc2)NC(=O)OC2COC3(C)OCCC23)cc1 (stereo not shown)	HIV-1 PR (Human immunodeficiency virus type 1 group M subtype B, UniProt P04585)	true (1)
COc1ccc(S(=O)(=O)N(CC2CCC2)CC(O)C(Cc2ccc(NCc3ccccc3C(=O)Nc3sc4c(c3C(=O)O)CC(C)(C)CC4)cc2)NC(=O)OC2COC3(C)OCCC23)cc1 (stereo not shown)	HIV-1 PR (Human immunodeficiency virus type 1 group M subtype B, UniProt P04585)	false (0)
COc1ccc(S(=O)(=O)N(CC(C)C)CC(O)C(Cc2ccc(NCc3ccc(OC)c(-c4sc5c(c4C(=O)O)CC(C)(C)CC5)c3)cc2)NC(=O)OC2COC3(C)OCCC23)cc1 (stereo not shown)	HIV-1 PR (Human immunodeficiency virus type 1 group M subtype B, UniProt P04585)	true (1)
CN(Cc1ccccc1C(=O)Nc1sc2c(c1C(=O)O)CC(C)(C)CC2)c1ccc(CC(NC(=O)OC2COC3(C)OCCC23)C(O)CN(CC2CCCC2)S(=O)(=O)c2ccc3ncsc3c2)cc1 (stereo not shown)	HIV-1 PR (Human immunodeficiency virus type 1 group M subtype B, UniProt P04585)	false (0)
CC(C)CN(CC(O)C(Cc1ccc(OCc2ccc3ccccc3c2C(=O)N(C)C)cc1)NC(=O)OC1COC2(C)OCCC12)S(=O)(=O)c1ccc2ncsc2c1 (stereo not shown)	HIV-1 PR (Human immunodeficiency virus type 1 group M subtype B, UniProt P04585)	true (1)
COc1ccc(S(=O)(=O)N(CC(C)C)CC(O)C(Cc2ccc(NCC3(c4ccc(-c5sc6c(c5C(=O)O)CC(C)(C)CC6)cc4)CCCCC3)cc2)NC(=O)OC2COC3(C)OCCC23)cc1 (stereo not shown)	HIV-1 PR (Human immunodeficiency virus type 1 group M subtype B, UniProt P04585)	false (0)
COc1ccc(S(=O)(=O)N(CC(C)C)CC(O)C(Cc2ccc(NCc3cc(OC)ccc3-c3sc4c(c3C(=O)O)CC(C)(C)CC4)cc2)NC(=O)OC2COC3(C)OCCC23)cc1 (stereo not shown)	HIV-1 PR (Human immunodeficiency virus type 1 group M subtype B, UniProt P04585)	true (1)
COc1ccc(S(=O)(=O)N(CC(C)C)CC(O)C(Cc2ccc(N3CCC(Oc4ccccc4C(=O)Nc4sc5c(c4C(=O)O)CC(C)(C)CC5)C3)cc2)NC(=O)OC2COC3(C)OCCC23)cc1 (stereo not shown) [Compound I-595]	HIV-1 PR (Human immunodeficiency virus type 1 group M subtype B, UniProt P04585)	false (0)
COc1ccc(S(=O)(=O)N(CC(C)C)CC(O)C(Cc2ccc(N(C)Cc3ccc(C)cc3-c3sc4c(c3C(=O)O)CC(C)(C)CC4)cc2)NC(=O)OC2COC3(C)OCCC23)cc1 (stereo not shown)	HIV-1 PR (Human immunodeficiency virus type 1 group M subtype B, UniProt P04585)	false (0)
COc1ccc(S(=O)(=O)N(CC(C)C)CC(O)C(Cc2ccc(OCc3ccccc3-c3sc4c(c3C(=O)O)CC(C)(C)CC4)cc2)NC(=O)OC2COC3(CO)OCCC23)cc1 (stereo not shown)	HIV-1 PR (Human immunodeficiency virus type 1 group M subtype B, UniProt P04585)	true (1)
CC(C)CN(CC(O)C(Cc1ccc(OCc2ccc(C(=O)O)cc2-c2ccc(F)cc2F)cc1)NC(=O)OC1COC2(C)OCCC12)S(=O)(=O)c1ccc2ncsc2c1 (stereo not shown)	HIV-1 PR (Human immunodeficiency virus type 1 group M subtype B, UniProt P04585)	true (1)
COc1ccc(S(=O)(=O)N(CC(C)C)CC(O)C(Cc2ccc(N3CC(Oc4ccccc4-c4sc5c(c4C(=O)O)CC(C)(C)CC5)C3)cc2)NC(=O)OC2COC3(C)OCCC23)cc1 (stereo not shown)	HIV-1 PR (Human immunodeficiency virus type 1 group M subtype B, UniProt P04585)	false (0)
COc1ccc(S(=O)(=O)N(CC(C)C)CC(O)C(Cc2ccc(CN(C)c3cccc(-c4sc5c(c4C(=O)O)CC(C)(C)CC5)c3)cc2)NC(=O)OC2COC3(C)OCCC23)cc1 (stereo not shown)	HIV-1 PR (Human immunodeficiency virus type 1 group M subtype B, UniProt P04585)	false (0)
